Overview of reported growth across a group of compounds:
Tested on: CCRF-CEM leukemia
ASSAY TEXT: NCI-60 one-dose screen, 48 h (100 = growth as untreated, 0 = no growth, -100 = all killed)
MEASUREMENT PARAMETERS: 10 µM
About 83,000 compounds went through this panel and 20% of them were active in at least one assay; those are over-represented in the sample as a whole. Starred links: 1 amine or outer side, 2 acyl side, 3 side chain; linkers in the order of their positions; H or OH if unused. Positions of bridges follow the written chain, without caps; N, C: chain ends. Non-standard residues stand in square brackets, D forms with d. Residues, ends and D or L forms follow the SMILES beside them. Chains are numbered I, II in the order given. Actinocin(9to1) = Cc1c2oc3c(C)ccc(C(=O)[*:1])c3nc-2c(C(=O)[*:2])c(N)c1=O; aThr = C[C@H](O)[C@H](N)C(=O)O; NMeV = CN[C@H](C(=O)O)C(C)C; Sar = CNCC(=O)O
State just the number; it will be interpreted in %.

Cc1cnc(/C=N\NC(N)=S)c2cccc(N)c12: -28.1
CSc1ccc2c(c1)C(N1CCN(C)CC1)Cc1ccccc1S2 (stereo not given): 31.7
BrC/C=C/C[P+](c1ccccc1)(c1ccccc1)c1ccccc1: 37.9
S=c1[nH]nc(Cc2ccccc2)c(=S)[nH]1: 104
Cc1c2oc3c(C)ccc(C(=O)N[C@@H]4C(=O)N[C@H](C(C)C)C(=O)N5CCC[C@H]5C(=O)N(C)CC(=O)N(C)[C@@H](C(C)C)C(=O)O[C@H]4C)c3nc-2c(C(=O)N[C@@H]2C(=O)N[C@H](C(C)C)C(=O)N3CCC[C@H]3C(=O)N(C)CC(=O)N(C)[C@@H](C(C)C)C(=O)O[C@H]2C)c(N)c1=O (I: [aThr][dV]P[Sar][NMeV] / II: [aThr][dV]P[Sar][NMeV]; ester I:1-I:C, II:1-II:C; linker I:N-II:N via Actinocin(9to1)): 0.799
Nc1ccc2cc(Br)c3ccccc3c2c1: 37.8
CN(C)CCC(=O)c1c[nH]c2ccccc12: 96.2
CN1CCN(c2ccc3nc(-c4ccc5nc(-c6ccc(O)cc6)[nH]c5c4)[nH]c3c2)CC1: 74

Task: Give CCRF-CEM leukemia growth for the following compound: Cc1cc(NCCCN(C)C)c2ccc3c(ccc4c(NCCCN(C)C)cc(C)nc43)c2n1
Result: -28.7

Task: Report measured growth on CCRF-CEM leukemia; entry: COc1cc(C(C)(C)C)cc(OC)c1C(O)(c1c(OC)cc(C(C)(C)C)cc1OC)c1c(OC)cc(C(C)(C)C)cc1OC
Result: -68

====

Test system: 786-0 renal
ASSAY TEXT: NCI-60 one-dose screen, 48 h (100 = growth as untreated, 0 = no growth, -100 = all killed)
MEASUREMENT PARAMETERS: 10 µM
This is part of a sample that, as a whole, favours compounds with a hit. Of some 83,000 tested, about 20% had one in any assay. Starred links: 1 amine or outer side, 2 acyl side, 3 side chain; linkers in the order of their positions; H or OH if unused. Positions of bridges follow the written chain, without caps; N, C: chain ends. Non-standard residues stand in square brackets, D forms with d. Residues, ends and D or L forms follow the SMILES beside them. Chains are numbered I, II in the order given. Actinocin(9to1) = Cc1c2oc3c(C)ccc(C(=O)[*:1])c3nc-2c(C(=O)[*:2])c(N)c1=O; aThr = C[C@H](O)[C@H](N)C(=O)O; NMeV = CN[C@H](C(=O)O)C(C)C; Sar = CNCC(=O)O
REPORTED PROPERTY: growth (%)
Give the value, in units of %, as a plain number.

See these solved cases before continuing.
Nc1ccc2cc(Br)c3ccccc3c2c1: 54.8
COc1cc(C(C)(C)C)cc(OC)c1C(O)(c1c(OC)cc(C(C)(C)C)cc1OC)c1c(OC)cc(C(C)(C)C)cc1OC: -96.6
CCCCCCCCCCCCCCCCCN: 105
Cc1cc(NCCCN(C)C)c2ccc3c(ccc4c(NCCCN(C)C)cc(C)nc43)c2n1: -35.2
Cc1c2oc3c(C)ccc(C(=O)N[C@@H]4C(=O)N[C@H](C(C)C)C(=O)N5CCC[C@H]5C(=O)N(C)CC(=O)N(C)[C@@H](C(C)C)C(=O)O[C@H]4C)c3nc-2c(C(=O)N[C@@H]2C(=O)N[C@H](C(C)C)C(=O)N3CCC[C@H]3C(=O)N(C)CC(=O)N(C)[C@@H](C(C)C)C(=O)O[C@H]2C)c(N)c1=O (I: [aThr][dV]P[Sar][NMeV] / II: [aThr][dV]P[Sar][NMeV]; ester I:1-I:C, II:1-II:C; linker I:N-II:N via Actinocin(9to1)): -3.24
CN(C)CCC(=O)c1c[nH]c2ccccc12: 98.8

Next compound, growth to be filled in.
Task: Please report the measured growth for N#C/C(=C1C=C/C(=N\O)C(Cl)=C\1)c1ccccc1
Result: 43

====

System: DU-145 prostate
ASSAY TEXT: NCI-60 one-dose screen, 48 h (100 = growth as untreated, 0 = no growth, -100 = all killed)
MEASUREMENT PARAMETERS: 10 µM
Compounds without any hit were thinned out: in the full panel of roughly 83,000, 20% have a hit. Activity calls are given as the source filed them. The calls were made as follows: active = growth percent below 10; inactive = the rest. Starred links: 1 amine or outer side, 2 acyl side, 3 side chain; linkers in the order of their positions; H or OH if unused. Positions of bridges follow the written chain, without caps; N, C: chain ends. Non-standard residues stand in square brackets, D forms with d. Residues, ends and D or L forms follow the SMILES beside them. Chains are numbered I, II in the order given. Actinocin(9to1) = Cc1c2oc3c(C)ccc(C(=O)[*:1])c3nc-2c(C(=O)[*:2])c(N)c1=O; aThr = C[C@H](O)[C@H](N)C(=O)O; NMeV = CN[C@H](C(=O)O)C(C)C; Sar = CNCC(=O)O
growth reference

Cc1c2oc3c(C)ccc(C(=O)N[C@@H]4C(=O)N[C@H](C(C)C)C(=O)N5CCC[C@H]5C(=O)N(C)CC(=O)N(C)[C@@H](C(C)C)C(=O)O[C@H]4C)c3nc-2c(C(=O)N[C@@H]2C(=O)N[C@H](C(C)C)C(=O)N3CCC[C@H]3C(=O)N(C)CC(=O)N(C)[C@@H](C(C)C)C(=O)O[C@H]2C)c(N)c1=O (I: [aThr][dV]P[Sar][NMeV] / II: [aThr][dV]P[Sar][NMeV]; ester I:1-I:C, II:1-II:C; linker I:N-II:N via Actinocin(9to1)): -30.5% (active)
CCCCCCCCCCCCCCCCCN: 114% (inactive)
CN(C)CCC(=O)c1c[nH]c2ccccc12: 111% (inactive)

Task: Tell me growth reported for S=c1[nH]nc(Cc2ccccc2)c(=S)[nH]1
Result: 100% (inactive)

====

growth values, listed per item
Tested on: SK-OV-3 ovarian
ASSAY TEXT: NCI-60 one-dose screen, 48 h (100 = growth as untreated, 0 = no growth, -100 = all killed)
MEASUREMENT PARAMETERS: 10 µM
The panel holds about 83,000 compounds, 20% with a hit somewhere; the sample as a whole holds those more often.
Your answer should be a plain number; it is taken to be in %.

Answered cases to consult:
CN(C)CCC(=O)c1c[nH]c2ccccc12: 96.6
Nc1ccc2cc(Br)c3ccccc3c2c1: 81.1
BrC/C=C/C[P+](c1ccccc1)(c1ccccc1)c1ccccc1: 95.5
CN1CCN(c2ccc3nc(-c4ccc5nc(-c6ccc(O)cc6)[nH]c5c4)[nH]c3c2)CC1: 84.4
CCCCCCCCCCCCCCCCCN: 96.8
S=c1[nH]nc(Cc2ccccc2)c(=S)[nH]1: 99.6

Now for a further compound.
Task: Return growth for the following compound: Cc1cnc(/C=N\NC(N)=S)c2cccc(N)c12
Result: 22.9

====

System: HCT-15 colon
ASSAY TEXT: NCI-60 one-dose screen, 48 h
MEASUREMENT PARAMETERS: 10 µM
Description: Growth inhibition of the HCT-15 human tumor cell line is measured as a screen for anti-cancer activity. Cells are grown in 96 well plates and exposed to the test compound for 48 hours. Compounds are tested at a single concentration, which is 10^-5 M for most compounds. The reported endpoint is percent growth (GI% or GIPRCNT), where numbers from 0 - 100% represent growth inhibition, and numbers from -100% - 0 represent cell death. For example, a value of 40 represents 60% growth inhibition. […]
The panel holds about 83,000 compounds, 20% with a hit somewhere; the sample as a whole holds those more often. Active and inactive are the calls of the source. How the source made its calls: active means growth percent below 10; inactive means the rest.
Classes to choose from: active, inactive

Cc1cc(NCCCN(C)C)c2ccc3c(ccc4c(NCCCN(C)C)cc(C)nc43)c2n1: active

Task: What outcome does the record of this test show for N#C/C(=C1C=C/C(=N\O)C(Cl)=C\1)c1ccccc1 ?
Result: inactive

Task: What classification did O=C(/C(=C/c1ccccc1)CBr)c1ccccc1 end up with in this test?
Result: inactive

Task: Check the results log: what was the call for CN1CCN(c2ccc3nc(-c4ccc5nc(-c6ccc(O)cc6)[nH]c5c4)[nH]c3c2)CC1 ?
Result: inactive

Task: Given CN(C)CCC(=O)c1c[nH]c2ccccc12 , state the outcome it received in this test.
Result: inactive

Task: Called result for BrC/C=C/C[P+](c1ccccc1)(c1ccccc1)c1ccccc1
Result: inactive

Task: # outcome recorded in this test, key = Nc1ccc2cc(Br)c3ccccc3c2c1
Result: inactive
